# Tested on: Fusarium
# methodSummary: Antifungal activity against Fusarium recini after 48 hrs
# Type: functional
measurementKind: MIC
Value and unit, in that order.

The cases that follow already have their MIC on record.
{"itemSmiles": "c1cnc2c(c1)nnn2C1CCOCC1", "MIC": "50 µg"}
{"itemSmiles": "Clc1cc2c(cn1)nnn2C1CCOCC1", "MIC": "25 µg"}
{"itemSmiles": "COc1ccc(-n2nnc3cccnc32)cc1", "MIC": "50 µg"}
{"itemSmiles": "Oc1ncnc2c1nnn2Cc1ccccc1", "MIC": "50 µg"}
{"itemSmiles": "Fc1ccc(-n2nnc3cccnc32)cc1", "MIC": "50 µg"}

Problem: Consider the compound Fc1ccc(-n2nnc3cnc(Cl)cc32)cc1 . State its measured MIC.
Solution: 50 µg

Problem: Fill in MIC for record COc1ccc(-n2nnc3cnc(Cl)cc32)cc1
Solution: 25 µg

Problem: Input Cc1ccc(-n2nnc3cccnc32)c(C)c1 , output reported MIC.
Solution: 100 µg

Problem: For the compound Clc1cc2c(cn1)nnn2Cc1ccccc1 , give its measured MIC value.
Solution: 25 µg
